- testedSystem: Delta-type opioid receptor (Mus musculus) (UniProt P32300)
- Sequence (P32300 whole entry): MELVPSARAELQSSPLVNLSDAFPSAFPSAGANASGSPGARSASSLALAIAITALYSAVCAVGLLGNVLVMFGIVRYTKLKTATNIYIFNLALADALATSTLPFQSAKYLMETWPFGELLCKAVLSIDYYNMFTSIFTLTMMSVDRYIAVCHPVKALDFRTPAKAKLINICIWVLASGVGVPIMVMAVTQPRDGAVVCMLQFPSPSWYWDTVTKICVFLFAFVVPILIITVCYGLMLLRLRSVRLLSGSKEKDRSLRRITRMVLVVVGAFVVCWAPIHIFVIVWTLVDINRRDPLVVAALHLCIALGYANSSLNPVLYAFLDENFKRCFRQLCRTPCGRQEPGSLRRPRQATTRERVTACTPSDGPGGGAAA
- procedureSummary: Ratio of IC50 of DADLE (agonist) after 10 min of incubation along with compound (antagonist) and IC50 of agonist in the absence of compound for delta opioid receptor at 1 uM in MVD assay
- Assay type: functional
Square brackets hold non-standard residues; d marks the D form. Peptide text beside a SMILES is read from it. * marks the point of attachment. Tyr(Nα,Nα-Bn2) = O=C([C@H](Cc1ccc(O)cc1)N(Cc1ccccc1)Cc1ccccc1)*; Phe(4-N(CH2CH2Cl)2) = N[C@@H](Cc1ccc(N(CCCl)CCCl)cc1)C(=O)O; Tyr(Nα,Nα-allyl2) = C=CCN(CC=C)[C@@H](Cc1ccc(O)cc1)C(=O)*; Aib = CC(C)(N)C(=O)O
valueKind: IC50 ratio
# print the numeric value only

Field: example entries. Status: answers known.
C=CCN(CC=C)[C@@H](Cc1ccc(O)cc1)C(=O)NCC(=O)NCC(=O)N[C@@H](Cc1ccccc1)C(=O)N[C@@H](CC(C)C)C(=O)O ({Tyr(Nα,Nα-allyl2)}-GGFL-OH) ... 2.7
CC(C)C[C@H](NC(=O)[C@H](Cc1ccc(N(CCCl)CCCl)cc1)NC(=O)C(C)(C)NC(=O)C(C)(C)NC(=O)[C@H](Cc1ccc(O)cc1)N(Cc1ccccc1)Cc1ccccc1)C(=O)O ({Tyr(Nα,Nα-Bn2)}-[Aib][Aib][Phe(4-N(CH2CH2Cl)2)]L-OH) ... 1.2
CC(C)C[C@H](NC(=O)[C@H](Cc1ccccc1)NC(=O)C(C)(C)NC(=O)C(C)(C)NC(=O)[C@H](Cc1ccc(O)cc1)N(Cc1ccccc1)Cc1ccccc1)C(=O)O ({Tyr(Nα,Nα-Bn2)}-[Aib][Aib]FL-OH) ... 5.6
CC(C)C[C@H](NC(=O)[C@H](Cc1ccccc1)NC(=O)CNC(=O)CNC(=O)[C@H](Cc1ccc(O)cc1)N(Cc1ccccc1)Cc1ccccc1)C(=O)O ({Tyr(Nα,Nα-Bn2)}-GGFL-OH) ... 6.6

Shifting focus to the molecule that follows.
Task: Quick one: IC50 ratio for C=CCN(CC=C)[C@@H](Cc1ccc(O)cc1)C(=O)NCC(=O)NCC(=O)N[C@@H](Cc1ccc(N(CCCl)CCCl)cc1)C(=O)N[C@@H](CC(C)C)C(=O)O ({Tyr(Nα,Nα-allyl2)}-GG[Phe(4-N(CH2CH2Cl)2)]L-OH) ?
Output: 1.2
